Collected Emax values appear next to each entry.
- Tested on: AP-1
- protocol: Cellular transrepression assay (AP-1 luciferase reporter in A549 cells, PMA activated)
- Format: cell-based
- measurement_parameters: 7 h, 10 ng/ml PMA, read-out: AP-1 Max % inhibition (measured in cellular transrepression assay)
quantity_name: Emax (%)

>>> assay_result("Cc1nsc(NC(=O)C(C)(C)C2c3ccc(Cl)nc3Oc3nc(-c4ccc(C(=O)N(C)C)cc4)ccc32)n1 (stereo not shown) [Example 57]")
31.4
>>> assay_result("CC[S+]([O-])c1ccc(-c2ccc3c(n2)Oc2nc(C)ccc2C3C(C)(C)C(=O)Nc2nncs2)cc1 (stereo in doubt) [Example 81]")
28.7
>>> assay_result("Cc1nnc(NC(=O)C(C)(C)C2c3ccc(-c4ccc(C(=O)N(C)C)cc4)nc3Oc3nc(N(C)C)ccc32)s1 (stereo not shown) [Example 68]")
46.3
>>> assay_result("CCNC(=O)c1nnc(NC(=O)C(C)(C)[C@H]2c3ccc(C)nc3Oc3nc(-c4ccc(C(=O)N(C)CC)cc4)ccc32)s1 [Example 48]")
59.4
>>> assay_result("CCN(C)C(=O)c1ccc(-c2ccc3c(n2)Oc2nc(C)ccc2[C@@H]3C(C)(C)C(=O)Nc2nnc(C)s2)cc1 [Example 35]")
45
>>> assay_result("Cc1ccc2c(n1)Oc1nc(-c3ccc(C(=O)N(C)C)cc3)ccc1[C@H]2C(C)(C)C(=O)Nc1nncs1 [Example 11]")
45.2
>>> assay_result("CCN(C)C(=O)c1ccc(-c2ccc3c(n2)Oc2nc(C)ccc2[C@@H]3C(C)(C)C(=O)Nc2nnc(C(=O)NC3CC3)s2)cc1 [Example 44]")
60.8

====

- System: AP-1
- protocol: Cellular transrepression assay (AP-1 luciferase reporter in A549 cells, PMA activated)
- Assay type: cell-based
- measurement_parameters: 7 h, 10 ng/ml PMA, read-out: AP-1 Max % inhibition (measured in cellular transrepression assay)
quantity_name: Emax (%)

>>> assay_result("CN(C)C(=O)c1ccc(-c2ccc3c(n2)Oc2nc(C#N)ccc2C3C(C)(C)C(=O)Nc2nncs2)cc1 (stereo not shown)")
38.9
>>> assay_result("Cc1ccc2c(n1)Oc1nc(-c3ccc(C(=O)N4CCC4)cc3)ccc1[C@H]2C(C)(C)C(=O)Nc1nncs1")
41.9
>>> assay_result("CN(C)C(=O)c1ccc(-c2ccc3c(n2)Oc2cnccc2C3C(C)(C)C(=O)Nc2nncs2)cc1 (stereo not shown)")
29.3
>>> assay_result("Cc1ccc2c(n1)Oc1nc(-c3ccc(C(=O)N4CCCC4)cc3)ccc1[C@H]2C(C)(C)C(=O)Nc1nncs1")
49.3
>>> assay_result("CCN(C)C(=O)c1ccc(-c2ccc3c(n2)Oc2nc(Cl)ccc2C3C(C)(C)C(=O)Nc2nncs2)cc1 (stereo not shown)")
62.3
>>> assay_result("CCN(C)C(=O)c1ccc(-c2ccc3c(n2)Oc2nc(C)ccc2[C@@H]3C(C)(C)C(=O)Nc2ncc(C)s2)cc1")
50.8
>>> assay_result("Cc1ccc2c(n1)Oc1nc(-c3ccc(C(=O)N(C)C)cc3)ccc1[C@H]2C(C)(C)C(=O)Nc1ncns1")
38.1

====

- target_or_system: human full-length glucocorticoid receptor (Homo sapiens, UniProt P04150)
- Construct: recombinantly expressed human full-length glucocorticoid receptor; purchased PanVera Co., Madison, Wis; P2816
- Sequence (P04150 whole entry): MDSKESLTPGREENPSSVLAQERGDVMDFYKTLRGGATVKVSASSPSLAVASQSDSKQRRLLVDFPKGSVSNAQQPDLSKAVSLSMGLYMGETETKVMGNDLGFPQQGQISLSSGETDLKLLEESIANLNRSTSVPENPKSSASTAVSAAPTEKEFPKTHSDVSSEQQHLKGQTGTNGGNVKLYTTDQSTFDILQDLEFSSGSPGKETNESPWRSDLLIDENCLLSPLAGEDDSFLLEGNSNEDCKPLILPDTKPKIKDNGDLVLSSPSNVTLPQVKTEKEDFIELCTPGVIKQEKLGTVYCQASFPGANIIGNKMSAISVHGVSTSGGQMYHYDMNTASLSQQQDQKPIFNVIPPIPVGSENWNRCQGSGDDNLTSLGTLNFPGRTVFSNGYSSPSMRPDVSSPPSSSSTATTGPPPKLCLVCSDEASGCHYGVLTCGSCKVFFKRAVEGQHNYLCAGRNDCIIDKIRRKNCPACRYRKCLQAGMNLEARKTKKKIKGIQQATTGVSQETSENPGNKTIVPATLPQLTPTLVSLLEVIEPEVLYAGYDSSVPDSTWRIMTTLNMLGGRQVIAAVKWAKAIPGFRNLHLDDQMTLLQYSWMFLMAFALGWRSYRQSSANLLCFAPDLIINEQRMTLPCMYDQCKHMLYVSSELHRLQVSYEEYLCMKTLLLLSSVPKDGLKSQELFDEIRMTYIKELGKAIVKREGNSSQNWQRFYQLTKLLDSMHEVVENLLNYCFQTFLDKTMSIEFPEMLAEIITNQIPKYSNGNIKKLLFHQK
- protocol: GR binding Assay II (fluorescence polarization competitor assay)
- measurement_parameters: given where AP-1 EC50 is greater than 1 uM and/or maximal inhibition is less than 20%; read-out: GR (Ki, nM) (measured in GR binding Assay II)
quantity_name: Ki (nM)

>>> assay_result("Cc1ccc2c(n1)Oc1nc(-c3ccc(Oc4ccccc4)cc3)ccc1[C@H]2C(C)(C)C(=O)Nc1nncs1")
4.59
>>> assay_result("Cc1ccc2c(n1)Oc1nc(Cl)ccc1C2C(C)(C)C(=O)Nc1nncs1 (stereo not drawn)")
269
>>> assay_result("CSc1ccc(-c2ccc3c(n2)Oc2nc(C)ccc2[C@@H]3C(C)(C)C(=O)Nc2nncs2)cc1")
18.9
>>> assay_result("Cc1ccc2c(n1)Oc1nc(-c3ccc(OC(F)(F)F)cc3)ccc1[C@H]2C(C)(C)C(=O)Nc1nncs1")
2.66
>>> assay_result("Cc1ccc2c(n1)Oc1nc(-c3ccc(C(=O)NC(C)(C)C)cc3)ccc1[C@H]2C(C)(C)C(=O)Nc1nncs1")
591
>>> assay_result("Cc1ccc2c(n1)Oc1nc(-c3ccc(S(C)(=O)=O)cc3)ccc1[C@H]2C(C)(C)C(=O)Nc1nncs1")
78.9
>>> assay_result("Cc1ccc2c(n1)Oc1nc(-c3ccc(C(=O)N4CCC[C@@H]4C(N)=O)cc3)ccc1[C@H]2C(C)(C)C(=O)Nc1nnc(C)s1")
122
>>> assay_result("CCN(C)C(=O)c1ccc(-c2ccc3c(n2)Oc2nc(C)ccc2[C@@H]3C(C)(C)C(=O)Nc2nnc(C(=O)N(C)C)s2)cc1")
149
>>> assay_result("CCSc1ccc(-c2ccc3c(n2)Oc2nc(C)ccc2[C@@H]3C(C)(C)C(=O)Nc2nncs2)cc1")
2.15
>>> assay_result("Cc1ccc2c(n1)Oc1nc(-c3ccc(C(=O)N(C)C)cc3)ccc1[C@H]2C(C)(C)C(=O)Nc1ncc(C(=O)NC2CC2)s1")
106
>>> assay_result("CC(C)(C(=O)Nc1nncs1)C1c2ccncc2Oc2nc(-c3ccc(C(=O)N4CCOCC4)cc3)ccc21 (stereo not drawn)")
199
>>> assay_result("CCN(C)C(=O)c1ccc(-c2ccc3c(n2)Oc2nc(C)ccc2[C@@H]3C(C)(C)C(=O)Nc2nnc(C(=O)NCCO)s2)cc1")
67.2
>>> assay_result("Cc1ccc2c(n1)Oc1nc(-c3ccc(C(=O)N4CCOCC4)cc3)ccc1[C@H]2C(C)(C)C(=O)Nc1nnn(C)n1")
153
>>> assay_result("Cc1ccc2c(n1)Oc1nc(-c3ccc(S(=O)(=O)N(C)C)cc3)ccc1[C@H]2C(C)(C)C(=O)Nc1nncs1")
172
>>> assay_result("Cc1ccc2c(n1)Oc1nc(-c3ccc(CN4CCCC4)cc3)ccc1[C@H]2C(C)(C)C(=O)Nc1nncs1")
1150
>>> assay_result("CN(C)C(=O)c1ccc(-c2ccc3c(n2)Oc2nc(N4CCOCC4)ccc2C3C(C)(C)C(=O)Nc2nncs2)cc1 (stereo not drawn)")
68.9
>>> assay_result("Cc1ccc2c(n1)Oc1nc(-c3ccc(C(=O)N4CCC[C@@H]4C(N)=O)cc3)ccc1[C@H]2C(C)(C)C(=O)Nc1nncs1")
103
>>> assay_result("CNC(=O)c1nnc(NC(=O)C(C)(C)[C@H]2c3ccc(C)nc3Oc3nc(-c4ccc(C(=O)N(C)C)cc4)ccc32)s1")
134
>>> assay_result("CN(C)C(=O)c1ccc(-c2ccc3c(n2)Oc2nc(N4CCCC4)ccc2C3C(C)(C)C(=O)Nc2nncs2)cc1 (stereo not drawn)")
385
>>> assay_result("C=Cc1ccc2c(n1)Oc1nc(-c3ccc(C(=O)N(C)C)cc3)ccc1C2C(C)(C)C(=O)Nc1nncs1 (stereo not drawn)")
80.8
>>> assay_result("CN(C)C(=O)c1ccc(-c2ccc3c(n2)Oc2nc(-c4ccccc4)ccc2C3C(C)(C)C(=O)Nc2nncs2)cc1 (stereo not drawn)")
657
>>> assay_result("Cc1ccc2c(n1)Oc1nc(-c3ccc(C(=O)N(C)C)cc3)ccc1[C@H]2C(C)(C)C(=O)Nc1ncc(C(=O)N2CCOCC2)s1")
411
>>> assay_result("Cc1ccc2c(n1)Oc1nc(-c3ccc(C(=O)N4CCCC4)c(F)c3)ccc1[C@H]2C(C)(C)C(=O)Nc1nncs1")
14.2
>>> assay_result("Cc1ccc2c(n1)Oc1nc(-c3ccc(C(=O)N4CCC(F)(F)C4)c(F)c3)ccc1[C@H]2C(C)(C)C(=O)Nc1nncs1")
38.2
>>> assay_result("Cc1ccc2c(n1)Oc1nc(-c3ccc(CC(C)C)cc3)ccc1[C@H]2C(C)(C)C(=O)Nc1nncs1")
2.53
>>> assay_result("CCN(C)C(=O)c1ccc(-c2ccc3c(n2)Oc2ncccc2C3C(C)(C)C(=O)Nc2nnc(C(=O)NC3CC3)s2)cc1 (stereo not drawn)")
65.6
>>> assay_result("Cc1ccc2c(n1)Oc1nc(-c3ccc(S(=O)(=O)C(C)C)cc3)ccc1[C@H]2C(C)(C)C(=O)Nc1nncs1")
25.2

====

- Tested on: AP-1
- protocol: Cellular transrepression assay (AP-1 luciferase reporter in A549 cells, PMA activated)
- Format: cell-based
- measurement_parameters: 7 h, 10 ng/ml PMA, read-out: AP-1 (EC50, nM) (measured in cellular transrepression assay)
quantity_name: EC50

>>> assay_result("CN(C)C(=O)c1ccc(-c2ccc3c(n2)Oc2ncccc2C3C(C)(C)C(=O)Nc2nncs2)cc1 (stereo not shown) [Example 3]")
"189 nM"
>>> assay_result("CCOC(=O)c1nnc(NC(=O)C(C)(C)[C@H]2c3ccc(C)nc3Oc3nc(-c4ccc(C(=O)N(C)CC)cc4)ccc32)s1")
"176 nM"
>>> assay_result("Cc1ccc2c(n1)Oc1nc(-c3ccc(C(=O)N4CCOCC4)cc3)ccc1[C@H]2C(C)(C)C(=O)Nc1nnc(C(=O)NC2CCOCC2)s1")
"56.9 nM"
>>> assay_result("CCN(C)C(=O)c1ccc(-c2ccc3c(n2)Oc2nc(C)ccc2[C@@H]3C(C)(C)C(=O)Nc2nncs2)cc1F")
"166 nM"
>>> assay_result("CCN(C)C(=O)c1ccc(-c2ccc3c(n2)Oc2nc(C)ccc2[C@@H]3C(C)(C)C(=O)Nc2nnc(C)s2)cc1")
"175 nM"
>>> assay_result("Cc1ccc2c(n1)Oc1nc(-c3ccc(C(=O)N4CCOCC4)cc3)ccc1[C@H]2C(C)(C)C(=O)Nc1nnc(C2CC2)s1")
"167 nM"
>>> assay_result("Cc1nnc(NC(=O)C(C)(C)C2c3ccc(-c4ccc(C(=O)N(C)C)cc4)nc3Oc3nc(N(C)C)ccc32)s1 (stereo not shown)")
"95.3 nM"
